Entry source: ChEMBL document CHEMBL3988442

system tested: Shiga toxin 2 (Escherichia coli O157:H7) (UniProt P09385+P09386)
measurement description: E. coli 0.157:H7 Shiga Toxin SOP - stx2 screening assay
Type: functional
Parameters: scale not given: direction of the effect not stated beside the values
condition parameters: 30 µM
quantity name: Percent Effect (%)

{"compound": "COCC1CN(Cc2ccncc2)Cc2nnn(CC3CC3)c21 (centres undefined)", "system tested": "Shiga toxin 2 (Escherichia coli O157:H7) (UniProt P09385+P09386)", "endpoint result": -28.3}
{"compound": "CCc1nc(CC(=O)N2CCn3c(nnc3C(C)C)C2)cs1", "system tested": "Shiga toxin 2 (Escherichia coli O157:H7) (UniProt P09385+P09386)", "endpoint result": -14.7}
{"compound": "Cc1ccc(OCC(=O)NCc2ccccc2F)nc1", "system tested": "Shiga toxin 2 (Escherichia coli O157:H7) (UniProt P09385+P09386)", "endpoint result": -8.96}
{"compound": "CCCNC(=O)CSc1nnc2[nH]c(=O)cc(CC)n12", "system tested": "Shiga toxin 2 (Escherichia coli O157:H7) (UniProt P09385+P09386)", "endpoint result": -11.3}
{"compound": "Cc1ccc2cc(C(=O)NCCn3nc4ccccn4c3=O)[nH]c2c1", "system tested": "Shiga toxin 2 (Escherichia coli O157:H7) (UniProt P09385+P09386)", "endpoint result": -70.8}
{"compound": "CNS(=O)(=O)c1ccc(C(=O)N2CCCC2c2cnn(C)c2)o1 (centres undefined)", "system tested": "Shiga toxin 2 (Escherichia coli O157:H7) (UniProt P09385+P09386)", "endpoint result": -29.3}
{"compound": "CC(C)(C)OC(=O)N1CCCc2ccc(NCc3ncc[nH]3)cc21", "system tested": "Shiga toxin 2 (Escherichia coli O157:H7) (UniProt P09385+P09386)", "endpoint result": -52.5}
{"compound": "CC(=O)N(Cc1ncc(C)o1)C1CCN(Cc2cccc(C#N)c2)C1 (centres undefined)", "system tested": "Shiga toxin 2 (Escherichia coli O157:H7) (UniProt P09385+P09386)", "endpoint result": 9.86}
{"compound": "CS(=O)(=O)NCc1n[nH]c2c1CCN(C(=O)c1ccsc1)C2", "system tested": "Shiga toxin 2 (Escherichia coli O157:H7) (UniProt P09385+P09386)", "endpoint result": -7.46}
{"compound": "CC(C)(C)c1nc(CN2CCCC2CCc2ccccc2)no1 (centres undefined)", "system tested": "Shiga toxin 2 (Escherichia coli O157:H7) (UniProt P09385+P09386)", "endpoint result": 14.9}
{"compound": "CC(=O)Nc1ccc(-n2ccc3nc(N4CCCC4)ncc3c2=O)cc1", "system tested": "Shiga toxin 2 (Escherichia coli O157:H7) (UniProt P09385+P09386)", "endpoint result": -9.95}
{"compound": "CCC(=O)N1CCC(c2nnc(Cn3cccn3)n2C2CC2)CC1", "system tested": "Shiga toxin 2 (Escherichia coli O157:H7) (UniProt P09385+P09386)", "endpoint result": -3.53}
{"compound": "Cc1noc(C2CCCN(C(=O)c3ccc(Br)o3)C2)n1 (centres undefined)", "system tested": "Shiga toxin 2 (Escherichia coli O157:H7) (UniProt P09385+P09386)", "endpoint result": -8.47}
{"compound": "CCS(=O)(=O)N1CCc2ccc(NC(=O)Nc3cccc(SC)c3)cc21", "system tested": "Shiga toxin 2 (Escherichia coli O157:H7) (UniProt P09385+P09386)", "endpoint result": -22}
{"compound": "Cn1cc(-c2ncnc3c2CCN(C(=O)N2CCOCC2)CC3)cn1", "system tested": "Shiga toxin 2 (Escherichia coli O157:H7) (UniProt P09385+P09386)", "endpoint result": -1.95}
{"compound": "CC(C)c1ccc(-c2nnn(CCNS(C)(=O)=O)n2)cc1", "system tested": "Shiga toxin 2 (Escherichia coli O157:H7) (UniProt P09385+P09386)", "endpoint result": -43.9}
{"compound": "c1ccc2cc(OCCN3CCOC(Cn4cncn4)C3)ccc2c1 (centres undefined)", "system tested": "Shiga toxin 2 (Escherichia coli O157:H7) (UniProt P09385+P09386)", "endpoint result": -29.2}
{"compound": "CC(C)(C)c1nnc(CN2CCOC(Cn3cncn3)C2)o1 (centres undefined)", "system tested": "Shiga toxin 2 (Escherichia coli O157:H7) (UniProt P09385+P09386)", "endpoint result": 8.96}
{"compound": "Cc1n[nH]c(C2CN(C(=O)Cn3ccccc3=O)CCO2)n1 (centres undefined)", "system tested": "Shiga toxin 2 (Escherichia coli O157:H7) (UniProt P09385+P09386)", "endpoint result": 10.2}
{"compound": "Cc1cccc(C(=O)N2CCCN(Cc3cnn(C)c3)CC2)n1", "system tested": "Shiga toxin 2 (Escherichia coli O157:H7) (UniProt P09385+P09386)", "endpoint result": -31.1}
{"compound": "CC(C)NC(=O)N1CCN(CC2CC2)CC2(CC(=O)N(C)C2)C1 (centres undefined)", "system tested": "Shiga toxin 2 (Escherichia coli O157:H7) (UniProt P09385+P09386)", "endpoint result": -11.9}
{"compound": "O=C(NCC1CCN(Cc2ccsc2)CC1)NC1CC1", "system tested": "Shiga toxin 2 (Escherichia coli O157:H7) (UniProt P09385+P09386)", "endpoint result": -10.9}
{"compound": "CCOc1nnc(CNC2CCCN(c3ccc(C)nn3)C2)s1 (centres undefined)", "system tested": "Shiga toxin 2 (Escherichia coli O157:H7) (UniProt P09385+P09386)", "endpoint result": 19.6}
{"compound": "CCn1cc2c(n1)CN(Cc1ccoc1)CC2COCC1CC1 (centres undefined)", "system tested": "Shiga toxin 2 (Escherichia coli O157:H7) (UniProt P09385+P09386)", "endpoint result": 13.8}
